pIC50: −log10 of the molar value.
Collected pIC50 for PAK3 (Homo sapiens, UniProt O75914) across several studies; molecules listed below.

These recorded examples may help you get a feel for the data.
{"columns": ["molecule", "pIC50"],
 "data": [
  ["Cc1cncc(-c2ccc(-c3cc4cnc(NC(CCO)CCO)nc4n(Cc4ccccc4C(F)(F)F)c3=O)c(Cl)c2)n1", "6.30 to 7.30"],
  ["CCn1c(=O)c(-c2ccc(-c3noc(C)n3)cc2Cl)cc2cnc(Nc3ccc(C4CCNC4)cc3)nc21 (stereo not shown)", "> 7.30"],
  ["CCn1c(=O)c(-c2ccc(-c3ccnc(C)c3)cc2Cl)cc2cnc(Nc3ccc(C4CCN(C)CC4)cc3)nc21", "> 7.30"],
  ["CCn1c(=O)c(-c2ccc(-c3ccco3)cc2Cl)cc2cnc(Nc3ccc(N4CCN(C)CC4)cc3)nc21", "> 7.30"],
  ["CCOc1ccccc1Cn1c(=O)ccc2cnc(Nc3ccc(N4CCN(C)CC4)cc3)nc21", "> 6.00"]
]}

Find pIC50 for "CCn1c(=O)c(-c2ccc(-c3noc(C)n3)cc2Cl)cc2cnc(Nc3ccc(N4CCN(C)CC4)cc3)nc21" on PAK3 (Homo sapiens, UniProt O75914) and write it down.
Sequence (O75914 whole entry): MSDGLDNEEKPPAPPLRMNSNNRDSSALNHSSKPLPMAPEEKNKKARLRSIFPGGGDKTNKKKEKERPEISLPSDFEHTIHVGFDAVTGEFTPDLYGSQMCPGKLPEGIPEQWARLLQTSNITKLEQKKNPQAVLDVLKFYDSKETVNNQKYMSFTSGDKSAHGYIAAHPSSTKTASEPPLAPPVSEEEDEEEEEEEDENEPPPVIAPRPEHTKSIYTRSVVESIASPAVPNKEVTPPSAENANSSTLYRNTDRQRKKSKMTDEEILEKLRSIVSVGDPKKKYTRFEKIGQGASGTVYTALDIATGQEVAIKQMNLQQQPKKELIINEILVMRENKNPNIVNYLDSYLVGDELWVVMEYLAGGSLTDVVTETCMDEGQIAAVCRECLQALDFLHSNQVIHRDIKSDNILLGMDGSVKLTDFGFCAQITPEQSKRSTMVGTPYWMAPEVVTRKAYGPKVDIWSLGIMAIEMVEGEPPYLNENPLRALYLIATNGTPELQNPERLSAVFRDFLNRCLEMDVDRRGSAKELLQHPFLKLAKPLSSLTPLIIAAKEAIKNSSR
> 7.30

Find pIC50 for "O=c1ccc2cnc(Nc3ccc(N4CCNCC4)c(F)c3)nc2n1Cc1ccccc1C(F)(F)F" on PAK3 (Homo sapiens, UniProt O75914) and write it down.
> 6.00

Find pIC50 for "CCn1c(=O)c(-c2ccc(-c3cccnc3C)cc2Cl)cc2cnc(Nc3ccc(N4CCN(C)CC4)cc3)nc21" on PAK3 (Homo sapiens, UniProt O75914) and write it down.
> 7.30

Find pIC50 for "Cc1cccc(F)c1Cn1c(=O)ccc2cnc(Nc3ccc(N4CCN(C)CC4)cc3)nc21" on PAK3 (Homo sapiens, UniProt O75914) and write it down.
> 6.00

Find pIC50 for "CCn1c(=O)c(-c2ccc(-c3ccc(C)nc3F)cc2Cl)cc2cnc(Nc3ccc(CCN(C)C)cc3)nc21" on PAK3 (Homo sapiens, UniProt O75914) and write it down.
> 7.30
